Source: the RepoRT retention time repository (doi:10.1016/j.foodchem.2021.129757)

assay: RP, Waters ACQUITY UPLC HSS T3, 100 × 2.1 mm, 1.8 µm, 30 °C, 0.4 mL/min, estimated dead time 0.55 min; A: water + 0.1% formic acid, pH 3; B: acetonitrile + 0.1% formic acid, pH 3; gradient (min/%B) 0/0 2/0 15/100 22/100 22.1/0 26/0; conditions: stereoisomer not certain
metric: LC retention time (min)

>>> result_value("O=C(O)Cc1ccccc1O [2-Hydroxyphenylacetic acid]")
9.13
>>> result_value("C[N+]1(C)CCCC1C(=O)[O-] (centres undefined) [Stachydrine]")
1.03
>>> result_value("O=S(=O)(O)Oc1c(O)cccc1O [Pyrogallol 2-O-sulfate]")
6.13
>>> result_value("O=C(O)Cc1ccc(O)cc1 [4-Hydroxyphenylacetic acid]")
8.37
>>> result_value("NCCc1ccc(O)c(O)c1 [Dopamine]")
1.3
>>> result_value("O=c1oc2cc(O)ccc2c2ccc(O)cc12 [Urolithin A]")
10.6
>>> result_value("COc1ccc(-c2oc3cc(O)cc(O)c3c(=O)c2O)cc1O [Tamarixetin]")
11.9
>>> result_value("OCC1OC(Oc2cc3c(O)cc(O)cc3[o+]c2-c2ccc(O)c(O)c2)C(O)C(O)C1O (centres undefined) [Cyanidin 3-O-glucoside]")
7.85
>>> result_value("CC1OC(OC2C(Oc3cc(O)c4c(c3)OC(c3ccc(O)cc3)CC4=O)OC(CO)C(O)C2O)C(O)C(O)C1O (centres undefined) [Naringin]")
9.46

* * *

assay: RP, Phenomenex Synergi Hydro-RP, 150 × 2 mm, 4 µm, 30 °C, 0.5 mL/min, estimated dead time 0.6 min; A: water + 0.1% formic acid, pH 3; B: acetonitrile + 0.1% formic acid, pH 3; gradient (min/%B) 0/5 1/5 35/45 40/100 45/100; conditions: stereoisomer not certain
Entries annotated with measured LC retention time
metric: LC retention time (min)

>>> result_value("C[n+]1cccc(C(=O)[O-])c1")
0.731
>>> result_value("O=C(C=Cc1ccc(O)c(O)c1)OC(Cc1ccc(O)c(O)c1)C(=O)O (stereo not given)")
18.4
>>> result_value("O=C(O)c1ccc(O)c(O)c1")
5.02
>>> result_value("COc1cc(C=CC(=O)CC(=O)C=Cc2ccc(O)c(OC)c2)ccc1O")
37.7
>>> result_value("Oc1ccc(C=Cc2cc(O)cc(O)c2)cc1")
20

* * *

test: RP, Agilent InfinityLab Poroshell 120 EC-C18, 100 × 3 mm, 2.7 µm, 25 °C, 0.4 mL/min, estimated dead time 1.1 min; A: water + 0.1% formic acid, pH 3; B: acetonitrile + 0.1% formic acid, pH 3; gradient (min/%B) 0/5 10/25 20/40 24/90 25/90 26/5 30/5; settings: stereoisomer not certain
metric: LC retention time (min)

>>> result_value("O=C(O)c1ccc(O)c(O)c1 [Protocatechuic acid]")
3.96
>>> result_value("COc1cc(CC(CO)C(CO)Cc2ccc(O)c(OC)c2)ccc1O (single isomer, unassigned; (-)) [(-)-Secoisolariciresinol]")
11.5
>>> result_value("COc1cc(CC2COC(c3ccc(O)c(OC)c3)C2CO)ccc1O (single isomer, unassigned; (+)) [(+)-Lariciresinol]")
12.1
>>> result_value("O=C1CCC(Cc2cccc(O)c2)O1 (centres undefined)")
10.6

* * *

test: RP, Waters Atlantis T3, 100 × 2.1 mm, 3 µm, 40 °C, 0.3 mL/min, estimated dead time 0.73 min; A: water + 0.1% trifluoroacetic acid, pH 2; B: acetonitrile + 0.1% trifluoroacetic acid, pH 2; gradient (min/%B) 0/10 1/10 6/40 7/50 8/50 14/70 16/80 20/10 25/10; settings: stereoisomer not certain
Label YES when LC retention time < 10 min; otherwise NO.

>>> label_value("COc1cc(/C=C/C(=O)O)ccc1O")
"YES"
>>> label_value("CC1OC(OC2C(O)C(OCCc3ccc(O)c(O)c3)OC(CO)C2OC(=O)C=Cc2ccc(O)c(O)c2)C(O)C(O)C1O (stereo not drawn) [Verbascoside]")
"YES"
>>> label_value("CC(C)=CCc1c(O)cc(O)c2c1OC(c1ccc(O)cc1)CC2=O (stereo not drawn)")
"NO"
>>> label_value("COc1cc(O)c(CC=C(C)C)c2c1C(=O)CC(c1ccc(O)cc1)O2 (stereo not drawn)")
"NO"
>>> label_value("O=c1oc2c(O)c(O)cc3c(=O)oc4c(O)c(O)cc1c4c23")
"YES"
>>> label_value("CC(C)c1cc2c(c(O)c1O)C13CCCC(C)(C)C1CC2OC3=O (stereo not drawn)")
"NO"
>>> label_value("O=c1c(OC2OC(CO)C(O)C(O)C2O)c(-c2ccc(OC3OC(CO)C(O)C(O)C3O)c(O)c2)oc2cc(O)cc(O)c12 (stereo not drawn) [Quercetin-3,4'-diglucoside]")
"YES"

* * *

Entries annotated with measured LC retention time
assay: Other, Phenomenex Kinetex PFP, 100 × 4.6 mm, 5 µm, 45 °C, 0.6 mL/min, estimated dead time 1.8 min; A: water + 0.1% trifluoroacetic acid, pH 2; B: methanol; gradient (min/%B) 0/40 20/72 21/40; conditions: stereoisomer not certain
metric: LC retention time (min)

>>> result_value("O=C(OC1Cc2c(O)cc(O)cc2OC1c1ccc(O)c(O)c1)c1cc(O)c(O)c(O)c1 (centres undefined) [Epicatechin gallate]")
5.76
>>> result_value("O=C1CC(c2ccc(O)c(O)c2)Oc2cc(O)cc(O)c21 (centres undefined)")
15.4
>>> result_value("CC1OC(OCC2OC(Oc3c(-c4ccc(O)c(O)c4)oc4cc(O)cc(O)c4c3=O)C(O)C(O)C2O)C(O)C(O)C1O (centres undefined)")
8.63
>>> result_value("COc1cc(C2C3C=C(C4Oc5cc(O)cc(O)c5C(=O)C4O)C4C2COC4(O)C3=O)ccc1O (centres undefined)")
21.5

* * *

Entries annotated with measured LC retention time
assay: RP, Phenomenex Synergi Hydro-RP, 250 × 2 mm, 4 µm, 25 °C, 0.2 mL/min, estimated dead time 2.5 min; A: water + 0.1% formic acid, pH 3; B: acetonitrile + 0.1% formic acid, pH 3; gradient (min/%B) 0/0.5 7/0.5 12/12.5 25/16.3 47/35 48/65 50/65 50.1/0.5; details: stereoisomer not certain
metric: LC retention time (min)

>>> result_value("CC1OC(OCC2OC(Oc3c(-c4ccc(O)cc4)oc4cc(OC5OC(C)C(O)C(O)C5O)cc(O)c4c3=O)C(O)C(O)C2O)C(O)C(O)C1O (centres undefined) [Robinin]")
31.8
>>> result_value("O=c1c(O)c(-c2ccc(O)cc2)oc2cc(O)cc(O)c12 [Kaempferol]")
52.3
>>> result_value("O=C(O)CCc1ccc(O)cc1 [Phloretic acid]")
26
>>> result_value("O=S(=O)(O)ON=C(CCc1ccccc1)SC1OC(CO)C(O)C(O)C1O (centres undefined) [Gluconasturtiin]")
19.3
>>> result_value("O=c1[nH]c(=O)c2[nH]c(=O)[nH]c2[nH]1 [Uric acid]")
7.67
>>> result_value("O=C(O)C=Cc1ccc(O)cc1 [p-Coumaric acid]")
30.1
>>> result_value("O=C(O)c1ccc(O)c(O)c1 [Protocatechuic acid]")
16.4
>>> result_value("COc1ccc(C2CC(=O)c3c(O)cc(O)cc3O2)cc1O (centres undefined) [Hesperetin]")
51.9
>>> result_value("COc1ccccc1C=CC(=O)O [2-Methoxycinnamic acid]")
50

* * *

test: RP, Agilent ZORBAX RRHD Eclipse Plus C18, 50 × 2.1 mm, 1.8 µm, 30 °C, 0.4 mL/min, estimated dead time 0.28 min; A: water + 0.1% formic acid, pH 3; B: acetonitrile + 0.1% formic acid, pH 3; gradient (min/%B) 0/1 5/10 8/25 9.1/99 10/99 12/1; conditions: stereoisomer not certain
Classes are defined on LC retention time with ranges bottom bin (below 5 min), middle bin (5 min to below 7 min), top bin (7 min or more)

>>> label_value("O=C(O)/C=C/c1cccc(O)c1")
"top bin"
>>> label_value("O=C(O)Cc1cccc(O)c1 [3-hydroxyphenylacetic acid]")
"middle bin"
>>> label_value("O=S(=O)(O)Oc1cccc(O)c1O [Pyrogallol-1-O-sulfate]")
"bottom bin"
>>> label_value("O=C(O)CNC(=O)c1ccccc1")
"bottom bin"
>>> label_value("COc1cc(CCC(=O)O)ccc1OC1OC(C(=O)O)C(O)C(O)C1O (stereo not given) [Dihydroferulic acid-4-O-glucuronide]")
"middle bin"
>>> label_value("O=C(O)c1ccc(OS(=O)(=O)O)c(O)c1 [Protocatechuic acid-4-O-sulfate]")
"bottom bin"
>>> label_value("O=C(O)c1ccccc1")
"top bin"
>>> label_value("O=C(O)C=Cc1ccc(O)c(OC2OC(C(=O)O)C(O)C(O)C2O)c1 (stereo not given) [Caffeic acid-3-glucuronide]")
"middle bin"

* * *

Entries annotated with measured LC retention time
assay: RP, Merck Supelco SUPELCOSIL LC-C18, 250 × 4.6 mm, 5 µm, 40 °C, 1 mL/min, estimated dead time 2.6 min; A: water + 0.1% trifluoroacetic acid, pH 2; B: acetonitrile + 0.1% trifluoroacetic acid, pH 2; gradient (min/%B) 0/5 45/35 47/75 49/35 50/5; details: stereoisomer not certain
metric: LC retention time (min)

>>> result_value("O=C(O)c1ccc(O)cc1 [4-Hydroxybenzoic acid]")
11.3
>>> result_value("Oc1ccc(C=Cc2cc(O)cc(O)c2)cc1")
31.6
>>> result_value("COc1cc(C(=O)O)cc(OC)c1O")
15.5
>>> result_value("O=c1c(O)c(-c2ccc(O)c(O)c2)oc2cc(O)cc(O)c12")
37.2
>>> result_value("O=C(O)c1cc(O)ccc1O")
12.5
>>> result_value("O=C(CCc1ccc(O)cc1)c1c(O)cc(O)cc1OC1OC(CO)C(O)C(O)C1O (centres undefined)")
30.8
>>> result_value("O=C(O)c1cc(O)c(O)c(O)c1")
5.2
>>> result_value("O=c1c(O)c(-c2ccc(O)cc2)oc2cc(O)cc(O)c12")
43.8
>>> result_value("Oc1cc(O)c2c(c1)OC(c1ccc(O)c(O)c1)C(O)C2 (single isomer, unassigned; (-)) [(-)-Epicatechin]")
16.8
